# test: CellTiter-Glo cell viability assay in ACE2-A549 cells
# details: human
measured quantity: CC50

Please list CC50 recorded for the compound CCC(CC)COC(=O)[C@H](C)N[P@](=O)(OC[C@H]1O[C@@](C#N)(c2ccc3c(N)ncnn23)[C@H](O)[C@@H]1O)Oc1ccccc1 ≥ 3000 nM
